Test system: Jurkat FADD-/- TNF-alpha necroptosis, CellTiter-Glo ATP, 24 h
Assay: inhibitors of TNF-alpha triggered necroptosis, potency, dose response, cell-based, Jurkat FADD-/-, duplicate IC50 (AID 463178)
The source made the active and inactive calls.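 How the source made its calls: active means IC50 below a set limit in both duplicate runs and mean IC50 below a set limit; inconclusive means IC50 above a set limit in only one run; inactive means IC50 above a set limit in both runs and mean.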
Possible outcomes: 1 = active, -1 = inactive

>  <compound>
COc1ccc(NC(C)c2ccccc2)cc1 (stereo not given)

>  <assigned_label>
1

$$$$
>  <compound>
Clc1ccc(COn2ccnc2)cc1Cl

>  <assigned_label>
1

$$$$
>  <compound>
O=C(CSC(=S)N1CCOCC1)N1N=CCC1c1ccccc1 (stereo not given)

>  <assigned_label>
1

$$$$
>  <compound>
O=C(CSc1nnc2n1CCCN2C(=S)Nc1ccc(Cl)cc1)c1ccccc1

>  <assigned_label>
-1

$$$$
>  <compound>
Cc1ccc(NC(=O)CSCc2ccc(F)cc2)cc1

>  <assigned_label>
-1

$$$$
>  <compound>
COc1ccc(-n2c(C)nc3sc4c(c3c2=O)CCC4)cc1

>  <assigned_label>
1

$$$$
>  <compound>
O=C(Nc1cccc2ccccc12)N1N=CCC1c1ccccc1 (stereo not given)

>  <assigned_label>
-1

$$$$
>  <compound>
CC(=O)Nc1ccc(/C=N/Nc2nc3ccccc3s2)cc1

>  <assigned_label>
-1

$$$$
>  <compound>
Cc1nnsc1C(=O)NCc1c(F)cccc1Cl

>  <assigned_label>
1

$$$$
>  <compound>
c1csc(Cc2nc3ccccc3[nH]2)c1

>  <assigned_label>
1

$$$$
>  <compound>
Brc1ccc(COn2ccnc2)cc1

>  <assigned_label>
1

$$$$
>  <compound>
Cc1ccc(NC(=O)C2COc3ccccc3O2)nc1 (stereo not given)

>  <assigned_label>
1

$$$$
>  <compound>
S=C(Nc1ccccc1)N1N=CCC1c1ccccc1 (stereo not given)

>  <assigned_label>
1

$$$$
>  <compound>
Cc1csc(Nc2ccccc2)[n+]1-c1ccccc1

>  <assigned_label>
-1

$$$$
>  <compound>
c1ccc(C2CC3CC4(CCCC4)N2O3)cc1 (stereo not given)

>  <assigned_label>
1

$$$$
>  <compound>
COc1cc(/C=N/Nc2nc3ccccc3[nH]2)cc(Br)c1OCC(=O)N(C)C

>  <assigned_label>
-1

$$$$
>  <compound>
O=C(Nc1cccc(Cl)c1)N1N=CCC1c1ccccc1 (stereo not given)

>  <assigned_label>
1

$$$$
>  <compound>
Cc1cc(N/N=C/c2ccncc2)nc2ccccc12

>  <assigned_label>
-1

$$$$
>  <compound>
O=C(CSCc1ccc([N+](=O)[O-])cc1)NC1CCCCCC1

>  <assigned_label>
1

$$$$
>  <compound>
COc1ccc(NC(=S)N2N=CCC2c2ccccc2)cc1 (stereo not given)

>  <assigned_label>
1

$$$$

* * *

System: Jurkat FADD-/- TNF-alpha necroptosis, CellTiter-Glo ATP, 24 h
Test: inhibitors of TNF-alpha triggered necroptosis, potency, dose response, cell-based, Jurkat FADD-/-, duplicate IC50 (AID 463178)
Activity calls are given as the source filed them.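 Rule for the calls: active = IC50 below a set limit in both duplicate runs and mean IC50 below a set limit; inconclusive = IC50 above a set limit in only one run; inactive = IC50 above a set limit in both runs and mean.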
Each entry below lists one item and its recorded IC50 value.

>  <compound>
O=C(CN1CCN(C(c2ccccc2)c2ccccc2)CC1)N1N=CCC1c1ccccc1 (stereo not drawn)

>  <IC50>
> 20 µM (inactive)

$$$$
>  <compound>
C=C(C)CSc1nnc2n(Cc3ccccc3)c(=O)c3c4c(sc3n12)CCC4

>  <IC50>
> 20 µM (inactive)

$$$$
>  <compound>
COc1ccc(-c2nc3c(-c4ccccc4)cnn3cc2C)cc1F

>  <IC50>
> 20 µM (inactive)

$$$$
